B1: TEKT4 (parent)
chain: LREKLLEAEQSLRNLEDIHMSLEK

# Variants of: B1
# PROCEDURE DETAILS: protein stability index of a GFP-peptide fusion (GPS, HEK-293T) (PSI 1-6); higher = more stable;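 further: lentivirally expressed fusions sorted by FACS into six bins by GFP to DsRed ratio, PSI derived from sequencing read proportions per bin multiplied by bin number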
# PROTOCOL CONDITIONS: c terminus: a fixed tail appended
Give measured protein stability index for each item. Keep answers brief.
Give bare numbers.

LREKLLEAEQSLRNLEPIHMSLEK
2.7
LREKLLEAEQSLRNQEDIHMSLEK
2.64
LREKLLEAEQSLRNLEDINMSLEK
2.93
LREKLLEAEQSLCNLEDIHMSLEK
2.21
LREKLLEAQQSLRNLEDIHMSLEK
1.98
LREKILEAEQSLRNLEDIHMSLEK
2.72
LREKLLEAEQSLRNLEDIHLSLEK
2.58
LIEKLLEAEQSLRNLEDIHMSLEK
2.41
LREKCLEAEQSLRNLEDIHMSLEK
2.44
KREKLLEAEQSLRNLEDIHMSLEK
4.27

Batch lookup, protein stability index per entry.
1. LREKLLEAEGSLRNLEDIHMSLEK
2. LREKLLEAEQSLRNLEDIHMSVEK
3. LREKLLEAEQSLRNLEDTHMSLEK
4. LREKNLEAEQSLRNLEDIHMSLEK
5. LREKLLEAEQSLRNLSDIHMSLEK
6. LREKLLEGEQSLRNLEDIHMSLEK
7. LREKLLEEEQSLRNLEDIHMSLEK

1: 2.71; 2: 2.09; 3: 3.28; 4: 5.13; 5: 2.25; 6: 2.2; 7: 3.99

Look at each variant and report its protein stability index.
1. LREKLLEAEQSLRNLEDNHMSLEK
2. LEEKLLEAEQSLRNLEDIHMSLEK
3. LREMLLEAEQSLRNLEDIHMSLEK
4. LREKLLEAEQSLRNLEDIHMSLGK
5. LREKLLEAEQSLRNLEDYHMSLEK
6. LREKLLEAEQGLRNLEDIHMSLEK

1: 3.43; 2: 2.43; 3: 1.76; 4: 1.58; 5: 2.3; 6: 2.28

Data provenance: the supplement of paper PMC10567573
